tgt: methionine aminopeptidase-2 (MetAP2) (Homo sapiens)
Construct: made in house; host or cells: insect cells, baculovirus system (secreted, purified from culture supernatant)
Sequence (P50579 whole entry): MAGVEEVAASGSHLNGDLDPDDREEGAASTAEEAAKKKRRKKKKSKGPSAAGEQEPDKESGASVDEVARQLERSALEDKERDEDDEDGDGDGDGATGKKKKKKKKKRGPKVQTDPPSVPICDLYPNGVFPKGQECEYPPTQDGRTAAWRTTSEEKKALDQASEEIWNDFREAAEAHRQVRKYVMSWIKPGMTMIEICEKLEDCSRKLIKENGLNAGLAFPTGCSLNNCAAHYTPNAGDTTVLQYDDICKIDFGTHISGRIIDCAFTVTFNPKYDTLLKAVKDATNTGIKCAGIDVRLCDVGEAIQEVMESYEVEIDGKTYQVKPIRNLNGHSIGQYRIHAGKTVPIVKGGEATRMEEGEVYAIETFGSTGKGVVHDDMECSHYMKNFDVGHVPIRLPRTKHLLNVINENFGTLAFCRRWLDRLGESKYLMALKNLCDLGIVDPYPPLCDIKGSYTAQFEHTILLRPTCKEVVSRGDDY
experimental.protocol: Inhibition of MetAP2 enzyme activity (96-well, Met-Ala-Ser substrate, L-amino acid oxidase/peroxidase/ortho-dianisidine, 450 nm)
Type: biochemical
conditions: IC50, recombinant MetAP2 4 μg/mL, pH 7.4, Met-Ala-Ser substrate, 20 minutes
Structures can show the parent of a compound that is named as a salt.
Strictly below 2000 nM in IC50: 1. Otherwise: 0.

Observe how each entry below is paired with its result.
                                   compound                                       tgt  classification
0  N[C@H](CC1CCCCC1)C(O)C(=O)Nc1ccccc1 (mixture of isomers) [Example 107, Hydrochloride]  methionine aminopeptidase-2 (MetAP2) (Homo sapiens)               1
1  Cc1ccccc1NC(=O)C(O)[C@H](N)CC1CCCCC1 (mixture of isomers) [Example 171, hydrochloride]  methionine aminopeptidase-2 (MetAP2) (Homo sapiens)               1
2  N[C@H](Cc1ccccc1)C(O)C(=O)NCCCCc1ccccc1 (mixture of isomers) [Example 22, hydrochloride]  methionine aminopeptidase-2 (MetAP2) (Homo sapiens)               0

Q) Consider CC(Cc1cccc(C(F)(F)F)c1)NC(=O)C(O)[C@H](N)CC1CCCCC1 (mixture of isomers) [Example 210, Hydrochloride] . Does its IC50 lie strictly below 2000 nM?
A) 0

Q) Consider COc1ccccc1NC(=O)C(O)[C@H](N)CC1CCCCC1 (mixture of isomers) . Does its IC50 lie strictly below 2000 nM?
A) 1

Q) Consider CCSCC[C@@H](N)C(O)C(=O)N[C@@H](C)C(=O)O (stereo partly shown) [Example 34, hydrochloride] . Does its IC50 lie strictly below 2000 nM?
A) 0
